Tested on: winter wheat (Vershin variety)
Assay: Winter wheat seed treatment with BHMPA salts: germinating power (length and mass of roots and sprouts)
Type: in vivo
Conditions: 1·10^−6% solution

Molecule | Target System | Length, sprout [cm]
O=P([O-])(CO)CO.O=P([O-])(CO)CO.[Mg+2] [Mg-salt, Magnesium BHMPA Salt] | winter wheat (Vershin variety) | 7.1
O=P([O-])(CO)CO.[Na+] [Na-salt, Sodium BHMPA Salt] | winter wheat (Vershin variety) | 6.0
O.O.O=P([O-])(CO)CO.O=P([O-])(CO)CO.[Co+2] [Co-salt, Cobalt BHMPA Salt] | winter wheat (Vershin variety) | 5.1
O=P([O-])(CO)CO.O=P([O-])(CO)CO.[Ca+2] [Ca-salt, Calcium BHMPA Salt] | winter wheat (Vershin variety) | 6.9
O=P([O-])(CO)CO.O=P([O-])(CO)CO.[Zn+2] [Zn-salt, Zinc BHMPA Salt] | winter wheat (Vershin variety) | 6.9
O.O.O=P([O-])(CO)CO.O=P([O-])(CO)CO.[Mn+2] [Mn-salt, Manganese BHMPA Salt] | winter wheat (Vershin variety) | 3.4
